This collection of values is drawn from paper PMC6572573.

Target: T1, BCRP (Rattus norvegicus, UniProt Q80W57)
T1 construct: from tissue; host or cells: living male Sprague-Dawley rats (intestine)
T1 sequence (Q80W57 whole entry): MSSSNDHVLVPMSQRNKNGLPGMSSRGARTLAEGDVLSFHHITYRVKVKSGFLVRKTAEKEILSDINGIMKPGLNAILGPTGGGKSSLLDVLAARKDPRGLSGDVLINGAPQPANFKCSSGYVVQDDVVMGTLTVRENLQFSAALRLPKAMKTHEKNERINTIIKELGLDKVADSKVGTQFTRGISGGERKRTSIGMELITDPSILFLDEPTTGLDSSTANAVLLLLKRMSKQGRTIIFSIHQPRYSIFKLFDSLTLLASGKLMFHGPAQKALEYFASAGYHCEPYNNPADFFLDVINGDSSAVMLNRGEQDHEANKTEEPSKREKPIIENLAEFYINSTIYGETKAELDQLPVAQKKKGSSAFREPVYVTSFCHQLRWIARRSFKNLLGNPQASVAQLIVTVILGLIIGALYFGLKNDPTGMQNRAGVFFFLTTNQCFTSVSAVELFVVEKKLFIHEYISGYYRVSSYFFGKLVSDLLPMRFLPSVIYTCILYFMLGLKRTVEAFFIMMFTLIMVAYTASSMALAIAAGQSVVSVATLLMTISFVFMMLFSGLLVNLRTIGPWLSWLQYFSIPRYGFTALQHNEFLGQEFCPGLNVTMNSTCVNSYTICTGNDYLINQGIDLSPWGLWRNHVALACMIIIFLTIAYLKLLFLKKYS
Assay: Oral pharmacokinetics of topotecan (BCRP substrate) in rats with/without co-administered LW6 formulations
Type: in vivo
Conditions: male, Sprague-Dawley, rat, plasma, oral topotecan 10 mg/kg, with or without LW6 20 mg/kg (pure or F8-SD), mean ± SD (n = 3), read-out: T1/2 of topotecan (converted)
quantity: half-life (h)
The answer is to be given in h; state only the numeric part.

## Input State its half-life for this molecule: "CC[C@@]1(O)C(=O)OCc2c1cc1n(c2=O)Cc2cc3c(CN(C)C)c(O)ccc3nc2-1"
## Output 2
